Each recorded value in this set is attributed to paper PMC8126888.

System: Leishmania infantum MHOM/MA(BE)/67/ITMAP263 intracellular amastigotes
details: intracellular amastigotes in PMM

{"compound_smiles": "COc1ccc(C#N)cc1S(=O)(=O)N(Cc1ccc(F)cc1)C1CCOCC1", "potency against L. inf. in words": "inactive"}
{"compound_smiles": "COc1ccc(C#N)cc1S(=O)(=O)N(Cc1ccc(C(F)(F)F)nc1)Cc1ccc(C(F)(F)F)nc1", "potency against L. inf. in words": "inactive"}
{"compound_smiles": "COc1ccc(C(=O)N2CCOCC2)cc1S(=O)(=O)N(Cc1ccc(C(F)(F)F)nc1)CC(C)(C)C", "potency against L. inf. in words": "inactive"}

###

assay_explanation: in vitro
details: human, microsomes, pH 7.4, HLM CLint, human liver microsomes
measured_metric: microsomal CLint at 0.5 μM (µL/min/mg)
One number for each entry, in µL/min/mg.

Study these solved cases before continuing.
{"compound": "CCN(Cc1ccccc1)S(=O)(=O)c1ccccc1 [DNDI0003363563]", "measured_metric": "microsomal CLint at 0.5 μM", "unit_abbrev": "µL/min/mg", "assay_result": 418}
{"compound": "CCN(Cc1ccccc1)S(=O)(=O)c1cc(OC)ccc1OC [DNDI0003365407]", "measured_metric": "microsomal CLint at 0.5 μM", "unit_abbrev": "µL/min/mg", "assay_result": 534}

I would be grateful if you could provide microsomal CLint at 0.5 μM for each of the following entries.
1. COc1ccc(OC)c(S(=O)(=O)N(Cc2ccc(F)cc2)c2ccc(F)cn2)c1 [DNDI0003370085]
2. CCN(Cc1ccccc1)S(=O)(=O)c1ccccc1Br [DNDI0003365405]
3. CC[C@H](Cc1ccccc1)[S+]([O-])c1ccccc1OC (some centres unmarked) [DNDI0003362001]

230
88
390

###

For each record, write down the corresponding IC50.
Tested on: Leishmania infantum MHOM/MA(BE)/67/ITMAP263 intracellular amastigotes
assay_explanation: microbe, parasite or virus in culture
details: Macrophage, in Mus musculus, read-out: L. Inf. pIC50, from L. infantum intracellular amastigote IC50 (converted)

Study these solved cases before continuing.
{"compound": "CONS(=O)(=O)c1cc(Cl)ccc1OC", "target_under_test": "Leishmania infantum MHOM/MA(BE)/67/ITMAP263 intracellular amastigotes", "IC50": "> 64 µM"}
{"compound": "O=S(=O)(NCc1ccccc1)c1ccccc1", "target_under_test": "Leishmania infantum MHOM/MA(BE)/67/ITMAP263 intracellular amastigotes", "IC50": "> 64 µM"}

I would be grateful if you could provide IC50 for each of the following entries.
1. COc1ncccc1S(=O)(=O)N(Cc1ccccc1)Cc1ccccc1
2. COC(=O)[C@H](CO)NS(=O)(=O)c1cc(Cl)ccc1OC
3. COc1ccc(C#N)cc1S(=O)(=O)N(Cc1ccc(C(F)(F)F)nc1)Cc1ccc(C(F)(F)F)nc1
4. COc1ccc(OC)c(S(=O)(=O)N(CCn2nc(C)cc2C)Cc2ccccc2)c1
5. O=S(=O)(c1cc(F)ccc1F)N(Cc1ccccc1)C(CO)CO

["0.646 µM", "> 64 µM", "38 µM", "6.17 µM", "57.5 µM"]

I would be grateful if you could provide IC50 for each of the following entries.
1. COc1ccc(OC)c(S(=O)(=O)N(Cc2ccc(F)cc2)Cc2ncccn2)c1
2. COc1ccc(F)cc1S(=O)(=O)N(Cc1ccccc1)Cc1ccccc1
3. COCCN(Cc1ccccc1)S(=O)(=O)c1ccccc1OC(F)(F)F
4. Cn1cccc(S(=O)(=O)N(Cc2ccc(F)cc2)Cc2ccc(F)cc2)c1=O
5. COc1ccc(OC)c(S(=O)(=O)N(Cc2ccc(F)cc2)Cc2cnc(OC)nc2OC)c1
6. COc1ccc(C(=O)N2CCOCC2)cc1S(=O)(=O)N(Cc1ccc(C(F)(F)F)nc1)C(C)c1ccc(F)cc1 (stereo not drawn)
7. COc1ccc(C#N)cc1S(=O)(=O)N(Cc1ccc(F)cc1)C1CCOCC1
8. CNc1ncccc1S(=O)(=O)N(Cc1ccc(F)cc1)Cc1ccc(F)cc1

1. 13.8 µM
2. 1.38 µM
3. 8.32 µM
4. 20.4 µM
5. 53.7 µM
6. 2.34 µM
7. > 64 µM
8. 3.55 µM

I would be grateful if you could provide IC50 for each of the following entries.
1. COc1ccc(Cl)cc1S(=O)(=O)NCCN(C)C
2. COc1ccc(OC)c(S(=O)(=O)N(Cc2ccccc2)C2CCCN(C(C)=O)C2)c1 (stereo not drawn)
3. CCN(Cc1ccccc1)S(=O)(=O)c1ccc(OC)cc1

1: > 64 µM; 2: > 64 µM; 3: 11 µM
